- Assay: Toxicity against rat L6 cells after 72 hrs by Alamar blue assay
- Format: cell-based
Reported IC50 at 72 h by item:
Assay Endpoint: IC50 at 72 h (µg/mL)

C/C=C/c1ccc(O[C@H](C)[C@@H](O)c2ccc(OC)c(OC)c2)c(OC)c1 13.2
COc1ccc([C@@H](O)[C@@H](C)Oc2ccc(Br)cc2OC)cc1OC 20.9
COc1cc(Br)ccc1O[C@H](C)[C@@H](O)c1cc(OC)c(OC)c(OC)c1 20.3
C/C=C/c1ccc(O[C@H](C)[C@@H](O)c2ccccc2)c(OC)c1 11.9
COc1cc(-c2ccccc2)ccc1O[C@H](C)[C@@H](O)c1ccccc1 11.2
C/C=C/c1ccc(O[C@H](C)[C@@H](O)c2ccc3c(c2)OCO3)c(OC)c1 15.3
COc1cc(Br)ccc1O[C@H](C)[C@H](O)c1ccc2c(c1)OCO2 48.2
C/C=C/c1ccc(O[C@H](C)[C@@H](OCOC)c2ccccc2)c(OC)c1 52.3
COc1ccc([C@H](O)[C@@H](C)Oc2ccc(Br)cc2OC)cc1 13.5
C/C=C/c1ccc(O[C@H](C)[C@@H](O)c2ccc(OC)cc2)c(OC)c1 15.5
COc1ccc(C(=O)[C@@H](C)Oc2ccc(Br)cc2OC)cc1OC 41.6
C/C=C/c1ccc(O[C@H](C)[C@H](O)c2ccc3c(c2)OCO3)c(OC)c1 14.7
COCO[C@H](c1ccc(OC)c(OC)c1)[C@@H](C)Oc1ccc(Br)cc1OC 50.6

* * *

- System: Plasmodium falciparum
- Assay: Anti-protozoal activity against Plasmodium falciparum K1 IEF stage after 72 hrs by [3H]hypoxanthine incorporation assay
- Type: functional, organism-based
Reported IC50 by item:
Assay Endpoint: IC50 (µg/mL)

Compound	Tested Target	Unit Spec	Assay Value
C/C=C/c1ccc(O[C@H](C)[C@H](O)c2ccc3c(c2)OCO3)c(OC)c1	Plasmodium falciparum	µg/mL	1.73
C/C=C/c1ccc(O[C@H](C)[C@@H](O)c2ccc3c(c2)OCO3)c(OC)c1	Plasmodium falciparum	µg/mL	4.59
COc1ccc([C@@H](O)[C@@H](C)Oc2ccc(Br)cc2OC)cc1OC	Plasmodium falciparum	µg/mL	2.5
COc1ccc([C@H](O)[C@@H](C)Oc2ccc(Br)cc2OC)cc1	Plasmodium falciparum	µg/mL	4.31
C/C=C/c1ccc(O[C@H](C)[C@@H](O)c2ccc(OC)c(OC)c2)c(OC)c1	Plasmodium falciparum	µg/mL	1.71
CCN(CC)CCCC(C)Nc1ccnc2cc(Cl)ccc12 (centres undefined)	Plasmodium falciparum	µg/mL	0.54
C/C=C/c1ccc(O[C@H](C)[C@@H](OCOC)c2ccccc2)c(OC)c1	Plasmodium falciparum	µg/mL	47.3
C/C=C/c1ccc(O[C@H](C)[C@@H](O)c2ccccc2)c(OC)c1	Plasmodium falciparum	µg/mL	3.23
COc1ccc(C(=O)[C@@H](C)Oc2ccc(Br)cc2OC)cc1OC	Plasmodium falciparum	µg/mL	3.12
C/C=C/c1ccc(O[C@H](C)[C@@H](O)c2ccc(OC)cc2)c(OC)c1	Plasmodium falciparum	µg/mL	1.33
COc1cc(-c2ccccc2)ccc1O[C@H](C)[C@@H](O)c1ccccc1	Plasmodium falciparum	µg/mL	5.99
COc1cc(Br)ccc1O[C@H](C)[C@H](O)c1ccc2c(c1)OCO2	Plasmodium falciparum	µg/mL	10.8
COCO[C@H](c1ccc(OC)c(OC)c1)[C@@H](C)Oc1ccc(Br)cc1OC	Plasmodium falciparum	µg/mL	49.3
COc1cc(Br)ccc1O[C@H](C)[C@@H](O)c1cc(OC)c(OC)c(OC)c1	Plasmodium falciparum	µg/mL	8.47

The values you see were collected from ChEMBL document CHEMBL2311282.
